Data origin, for the record: ChEMBL document CHEMBL3137667

- TEST CONDITIONS: human, serum;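 further: human clinical chemistry: moderate when serum ALT or AST reaches 6× upper normal limit or alkaline phosphatase 1.7×, value counts indexed literature references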
Classification by Hepatotoxicity (moderate) | ranges: bottom: < 2; middle: ≥ 2 and < 8; top: ≥ 8

// known answers, use as guide
COMPOUND	ANSWER LABEL
OCCOCCN1CCN(C2=Nc3ccccc3Sc3ccccc32)CC1	middle
Nc1cc(N2CCCCC2)nc(N)[n+]1[O-]	middle

Input: Returns: class label. Input: CN[C@@H]1[C@H](O[C@H]2[C@H](O[C@H]3[C@H](O)[C@@H](O)[C@H](NC(=N)N)[C@@H](O)[C@@H]3NC(=N)N)O[C@@H](C)[C@]2(O)CO)O[C@@H](CO)[C@H](O)[C@H]1O [DIHYDROSTREPTOMYCIN]
Output: bottom

Input: Band for C[C@H]1[C@H](OC(=O)CCC(=O)O)O[C@@H]2O[C@@]3(C)CC[C@H]4[C@H](C)CC[C@@H]1[C@@]24OO3 [ARTESUNATE] ?
Output: bottom

Input: Hello team, could you let me know which band the following compound falls into: CN1[C@@H]2CC[C@H]1C[C@@H](OC(=O)c1c[nH]c3ccccc13)C2
Output: middle

Input: Category of CN1CCN(CCCN2c3ccccc3Sc3ccc(S(=O)(=O)N(C)C)cc32)CC1 :
Output: bottom

Input: Class for CS(=O)(=O)c1ccc([C@@H](O)[C@@H](CO)NC(=O)C(Cl)Cl)cc1 ?
Output: bottom

Input: Band assignment needed for CC(C)OC(=O)C(C)(C)Oc1ccc(C(=O)c2ccc(Cl)cc2)cc1 [FENOFIBRATE] please.
Output: top

Input: Please indicate the class for CCOC(=O)[C@H](CCc1ccccc1)N[C@H]1CCc2ccccc2N(CC(=O)O)C1=O based on its Hepatotoxicity (moderate).
Output: bottom

Input: For the record Cc1nnc2n1-c1ccc(Cl)cc1C(c1ccccc1)=NC2 , report the class its Hepatotoxicity (moderate) corresponds to.
Output: middle

Input: Into which bin does this compound go? CN[C@H]1CC[C@@H](c2ccc(Cl)c(Cl)c2)c2ccccc21
Output: middle

Input: Field: class (Hepatotoxicity (moderate)) — entry: CC(C)C[C@H](NC(=O)[C@@H](O)[C@H](N)Cc1ccccc1)C(=O)O
Output: bottom

Input: Class? Entry: O=c1[nH]cnc2c1ncn2[C@H]1CC[C@@H](CO)O1
Output: top

Input: Exam item: assign NC(=O)OCC(COC(N)=O)c1ccccc1 [FELBAMATE] to the correct category.
Output: middle

Input: Kindly identify the class of C[C@H]1[C@H](NC(=O)/C(=N\OC(C)(C)C(=O)O)c2csc(N)n2)C(=O)N1S(=O)(=O)O .
Output: top

Input: Looking at C[C@@H]1CN(c2c(F)c(N)c3c(=O)c(C(=O)O)cn(C4CC4)c3c2F)C[C@H](C)N1 , which class would you pick?
Output: top
